Give fraction ligated for every item shown.
B1: minF1; the commonest letter at each place (parent)
chain: GAGACCGCAACTGAAAAGTTGTTATCAGAAATGGATGGGTTGAATTTCTGCACGTAGAAGCAAAAGGC

Variants of: B1
Assay: fraction ligated after 30 min (ligated reads / total reads); higher = more ligase activity
Details: with F1*subA RNA substrate (template-directed ligation), 42 °C
Respond using a number only.

Query: What value of fraction ligated has been recorded for this entry: G33C A35G
Result: 0.0844

Query: Please report the recorded fraction ligated for G28A G34C .
Result: 0.00587

Query: Given A29G A44C , state its recorded fraction ligated.
Result: 0.649

Query: Consider the variant T36A G42A and give its measured fraction ligated.
Result: 0.00342

Query: Fill in the blank: the reported fraction ligated of A29C T32A is ____.
Result: 0.0419

Query: Any idea what fraction ligated was measured for C26A A29G ?
Result: 0.0844

Query: Find the recorded fraction ligated belonging to A29C T36G and report it.
Result: 0.0261

Query: Tell me the measured fraction ligated of A35G T36G , please.
Result: 0.00747

Query: I have this variant here, A24G A27G , and I need its recorded fraction ligated.
Result: 0.0437

Query: Which fraction ligated reading was recorded for the variant A31C T36G ?
Result: 0.0226

Query: Which fraction ligated value belongs to A35C G42A ?
Result: 0.00288

Query: Would you mind telling me what fraction ligated value was observed for T32G G37A ?
Result: 0.00205

Query: Look at this variant and give its reported fraction ligated. A31C A44T
Result: 0.794

Query: I would be grateful if you could share the reported fraction ligated for C26T T36C .
Result: 0.00419

Query: Need fraction ligated of C26G T32A , thanks.
Result: 0.00367

Query: What does the data say about its fraction ligated? Entry: T25A G34C
Result: 0.0033

Query: Sample A30C A35G — what was its fraction ligated?
Result: 0.159

Query: Report fraction ligated for T32G G37T please.
Result: 0.00459

Query: GET /values?readout=fraction ligated&item= G42C
Result: 0.0127

Query: // returns reported fraction ligated for input G42C A43T A44G
Result: 0.0022

Query: Please look up its fraction ligated: T23G
Result: 0.8

Query: Quick check: fraction ligated of T23A G33T ?
Result: 0.0493

Query: Entry C26G A44T : reported fraction ligated = ?
Result: 0.0283

Query: # get_value(readout='fraction ligated', item= T32A G37C )
Result: 0.00322

Query: Bench note: what fraction ligated did T32G A43T show?
Result: 0.0529

Query: What value of fraction ligated has been recorded for this entry: T32C G42A
Result: 0.00418

Query: What value of measured fraction ligated is listed for G28C A31C ?
Result: 0.664

Query: Look up fraction ligated for this variant: A24T A43G
Result: 0.00117

Query: GET /values?readout=fraction ligated&item= T23C G28T
Result: 0.326

Query: Which value of fraction ligated has been reported for T32A G42C in the records?
Result: 0.00255

Query: State the recorded fraction ligated for this entry: G28C A44T
Result: 0.719

Query: What fraction ligated value was documented for this variant, A24C A29T ?
Result: 0.0449
